Tested on: Human immunodeficiency virus 2
Measurement protocol: Concentration required to inhibit the viral (HIV-2 ROD) cytopathic effect by 50% in MT-4 cells.
Assay type: functional, organism-based, MT4
Run conditions: Human immunodeficiency virus 2, MT4
pIC50: −log10 of the molar value.
Measured parameter: pIC50

Known results for molecules:
| Molecule | Experimental system | pIC50 |
| --- | --- | --- |
| Cc1ncn(Nc2cccc(Cl)c2)c1-c1cccc(C(N)=O)c1 | Human immunodeficiency virus 2 | < 3.58 |
| CC1N=C(S)N(Nc2ccccc2)C1C (configuration not stated) | Human immunodeficiency virus 2 | < 3.74 |

Quick check: pIC50 of Cc1cccc(NN2C(S)=NC(C)C2c2cccc(C(=O)O)c2)c1 (configuration not stated) ? < 3.73

Endpoint output: pIC50 of `Cc1cccc(Nn2cnc(C)c2-c2cccc(C(N)=O)c2)c1` . Value? < 3.79

* * *

Tested on: Human immunodeficiency virus 2
Measurement protocol: Concentration required to inhibit the viral (HIV-2 ROD) cytopathic effect by 50% in MT-4 cells.
Type: functional, organism-based, MT4
Run conditions: Human immunodeficiency virus 2, MT4
pIC50: −log10 of the molar value.
Measured parameter: pIC50

Would you please look over these solved cases?
| Compound | pIC50 |
| --- | --- |
| Cc1nc(SCc2ccccc2)n(Nc2cccc(Cl)c2)c1-c1ccccc1 | < 4.40 |
| CC1N=C(S)N(Nc2cccc(Cl)c2)C1c1cccc(C#N)c1 (configuration not stated) | < 4.00 |
| CC1N=C(S)N(Nc2cccc([N+](=O)[O-])c2)C1c1ccccc1 (configuration not stated) | < 4.32 |
| Cc1cccc(NN2C(S)=NC(C)C2c2cccc(C#N)c2)c1 (configuration not stated) | < 4.34 |
| SC1=NC2CCCCC2N1Nc1cccc(Cl)c1 (configuration not stated) | < 3.90 |

For CC1N=C(S)N(Nc2cccc(Cl)c2)C1c1cccc(C(N)=O)c1 (configuration not stated) , what is its reported pIC50? < 4.38

Form field: reported pIC50 of CCC1N=C(S)N(Nc2cccc(C)c2)C1c1ccccc1 (configuration not stated) < 4.27

Quick one: pIC50 for CC1N=C(S)N(Nc2cc(Cl)ccc2Cl)C1c1ccccc1 (configuration not stated) ? < 3.83

Give the measured pIC50 of `Cc1ncn(Nc2ccccc2)c1C` . < 3.45

Value lookup for pIC50; key = COC(=O)C1N=C(S)N(Nc2cccc(Cl)c2)C1C (configuration not stated) < 4.31

Requested field: pIC50. Item: CCc1ccc(NN2C(S)=NC(C)C2c2ccccc2)cc1 (configuration not stated) < 4.46

# query: pIC50 of entry `Cc1cccc(Nn2cnc(C)c2-c2cccc(C#N)c2)c1` < 4.35

* * *

IC50 values, listed per item
Tested on: Simian immunodeficiency virus
Measurement protocol: Concentration required to inhibit the viral (SIV mac251) cytopathic effect by 50% in MT-4 cells.
Type: functional, organism-based, MT4
Run conditions: mt4

Name the reported IC50 value associated with the compound `Cc1ncn(Nc2cccc(Cl)c2)c1C` > 214 µM

Need IC50, item `Clc1cccc(Nn2cnc3c2CCCC3)c1` > 67.3 µM

* * *

Test system: Human immunodeficiency virus 2
Measurement protocol: Concentration required to inhibit the viral (HIV-2 ROD) cytopathic effect by 50% in MT-4 cells.
Assay type: functional, organism-based, MT4
Run conditions: Human immunodeficiency virus 2, MT4
Measured parameter: IC50

Consider the reported IC50 for these compounds:
| Compound | Measured parameter | Test value |
| --- | --- | --- |
| CCC1N=C(S)N(Nc2cccc(Cl)c2)C1c1ccccc1 (configuration not stated) | IC50 | > 39 µM |
| Cc1nc(S)n(Nc2cccc(Cl)c2)c1-c1ccc(Br)cc1 | IC50 | > 33.2 µM |

// IC50 lookup, key: `Cc1nc(S)n(Nc2ccc(F)cc2)c1-c1ccccc1` > 220 µM

Entry CC1N=C(S)N(Nc2cccc(F)c2)C1c1ccccc1 (configuration not stated) has what IC50? > 108 µM

Item COC(=O)c1cccc(C2C(C)N=C(S)N2Nc2cccc(Cl)c2)c1 (configuration not stated) has what recorded IC50? > 67.4 µM

// lookup IC50 for COC(=O)C1C(C)N=C(S)N1Nc1cccc(Cl)c1 (configuration not stated) > 190 µM

Would you kindly share the measured IC50 for SC1=NC(c2ccccc2)C(c2ccccc2)N1Nc1cccc(Cl)c1 (configuration not stated) ? > 36.3 µM

Which IC50 is reported for this compound? `Cc1cccc(Nn2cnc(C)c2C)c1` > 312 µM

* * *

IC50 by entry:
Test system: Human immunodeficiency virus 1
Measurement protocol: Concentration required to inhibit the viral (HIV-1 NL4.3 strain) cytopathic effect by 50% in MT-4 cells.
Assay type: functional, organism-based
Run conditions: Human immunodeficiency virus 1, MT4

| Compound | Experimental system | IC50 |
| --- | --- | --- |
| Cc1nc(S)n(Nc2cccc(Cl)c2)c1-c1ccc(Br)cc1 | Human immunodeficiency virus 1 | > 33.2 µM |
| Cc1ncn(Nc2cccc(Cl)c2)c1-c1cccc(C(=O)O)c1 | Human immunodeficiency virus 1 | > 161 µM |
| Cc1nc(S)n(Nc2cccc(Cl)c2)c1-c1ccc(Cl)cc1 | Human immunodeficiency virus 1 | > 40.8 µM |
| CC1N=C(S)N(Nc2cccc(Cl)c2)C1c1cccc(C(=O)O)c1 (stereo unspecified) | Human immunodeficiency virus 1 | > 120 µM |
| Cc1cc(C)cc(NN2C(S)=NC(C)C2c2ccccc2)c1 (stereo unspecified) | Human immunodeficiency virus 1 | 0.87 µM |

Then this compound:
What value of IC50 has been recorded for this entry: CC1N=C(S)N(Nc2cccc(Cl)c2)C1C(=O)O (stereo unspecified) > 266 µM

* * *

Test system: Human immunodeficiency virus 1
Measurement protocol: Concentration required to inhibit the viral (HIV-1 IIIB strain) cytopathic effect by 50% in MT-4 cells.
Type: functional, organism-based
Run conditions: Human immunodeficiency virus 1, MT4
Reported IC50 is given for each of the following molecules.

| Molecule | Test value |
| --- | --- |
| COc1ccc(-c2c(C)nc(S)n2Nc2cccc(Cl)c2)cc1 | > 38.7 µM |

Return reported IC50; argument: `Cc1ncn(Nc2ccccc2)c1C` > 351 µM

Which IC50 reading was recorded for the molecule COc1cccc(NN2C(S)=NC(C)C2c2ccccc2)c1 (stereo unspecified) ? 4.78 µM

Item `COC(=O)c1cccc(-c2c(C)ncn2Nc2cccc(Cl)c2)c1` has what recorded IC50? > 33.1 µM

Form field: reported IC50 of CCc1ccc(NN2C(S)=NC(C)C2c2ccccc2)cc1 (stereo unspecified) > 34.5 µM

Item under review: CC1N=C(S)N(Nc2cccc(Cl)c2)C1C (stereo unspecified) . Reported IC50? > 259 µM

Could you share which IC50 value was measured for CC1N=C(S)N(Nc2ccccc2)C1c1ccccc1 (stereo unspecified) ? > 191 µM

Tell me the measured IC50 of Cc1cccc(NN2C(S)=NC(C)C2c2ccccc2)c1 (stereo unspecified) , please. 1.56 µM

* * *

Listed here: items and their measured IC50.
System: Human immunodeficiency virus 2
Measurement protocol: Concentration required to inhibit the viral (HIV-2 ROD) cytopathic effect by 50% in MT-4 cells.
Assay type: functional, organism-based, MT4
Run conditions: Human immunodeficiency virus 2, MT4
Record the value in µM, omitting the unit from your answer.

# count of solved cases: 2
| Smiles repr | Test value |
| --- | --- |
| Cc1nc(S)n(Nc2cccc3ccccc23)c1-c1ccccc1 | 5.1 |
| Cc1nc(S)n(Nc2cccc(Cl)c2)c1-c1cccc(Cl)c1 | 3.91 |

Shifting focus to the compound that follows.
Would you mind telling me what IC50 value was observed for `Cc1nc(S)n(Nc2cccc(Cl)c2)c1-c1ccccc1` ? 8.11

* * *

Entries annotated with measured IC50
Test system: Human immunodeficiency virus 2
Measurement protocol: Concentration required to inhibit the viral (HIV-2 ROD) cytopathic effect by 50% in MT-4 cells.
Format: functional, organism-based, MT4
Run conditions: Human immunodeficiency virus 2, MT4

Recorded IC50, per entry:
| Compound | Measured parameter | Test value |
| --- | --- | --- |
| Cc1nc(S)n(Nc2cccc(Cl)c2)c1-c1cccc(Br)c1 | IC50 | 10.5 µM |
| CC1N=C(S)N(Nc2cccc(Cl)c2)C1C (stereo not drawn) | IC50 | > 259 µM |
| Cc1ncn(Nc2cccc(Cl)c2)c1-c1cccc(C(=O)O)c1 | IC50 | > 161 µM |

Query (compound): CSc1ccc(NN2C(S)=NC(C)C2c2ccccc2)cc1 (stereo not drawn) ; field requested: IC50 > 53 µM

What value of measured IC50 is listed for Cc1ccc(NN2C(S)=NC(C)C2c2ccccc2)cc1C (stereo not drawn) ? > 55.6 µM

Quick check: IC50 of `CSc1nc(C)c(-c2ccccc2)n1Nc1cccc(Cl)c1` ? > 42.1 µM

Quick one: IC50 for Cc1cccc(NN2C(S)=NC(C)C2c2ccccc2)c1 (stereo not drawn) ? > 35.7 µM

// returns reported IC50 for input CC1N=C(S)N(Nc2ccccc2)C1c1ccccc1 (stereo not drawn) > 191 µM
